Source listed as PubChem BioAssay (NCI).

Below: a set of entries, each annotated with reported growth.
- System: NCI-H226 lung
- EXPERIMENT_SUMMARY: NCI-60 one-dose screen, 48 h (100 = growth as untreated, 0 = no growth, -100 = all killed)
- CONDITION_DETAILS: 10 µM unless noted
About 83,000 compounds went through this panel and 20% of them were active in at least one assay; those are over-represented in the sample as a whole. Calls of active or inactive are those of the source. The calls were made as follows: active = growth percent below 10; inactive = the rest.

{"columns": ["COMPOUND", "OBSERVED_MEASUREMENT"],
 "data": [
  ["O=C1C(Br)=CC2C1C1C3CCC3C2(Br)C12OCCO2 (stereo not given)", "59.6% (inactive)"]
]}

Reported growth of COc1cc(/C(=C2/O[C@@H]([C@H]3COC(C)(C)O3)[C@H]3OC(C)(C)O[C@@H]23)c2ccc3c(c2)OCO3)cc(OC)c1OC : 102% (inactive)

Per the records, this compound ( COC1(OC)N=C(N)C2(C#N)C3(C(=O)Nc4ccccc43)C12C#N (stereo not given) ) has growth equal to 62.5% (inactive)

Field growth (entry COC(=O)C(C(=O)OC)C(Br)C(Br)C(Br)c1ccccc1 (stereo not given) ) reads 96.5% (inactive)

Recorded result, COC(=O)[C@H](Cc1cn(C)cn1)NC(=O)[C@@H](NC(=O)Nc1cc(C(F)(F)F)cc(C(F)(F)F)c1)C(C)(C)C , growth: 64.7% [100 µM] (inactive)

Record summary for Cc1nc(NC(=O)NC2CCCCC2)sc1C(=O)NN : reported growth = 103% (inactive)

compound COc1ccc(Cn2cc3c(c2-c2ccccc2)CCc2cnoc2-3)cc1N , growth observed: 13% (inactive)

Measured growth of COc1ccc(Cn2cc3c(c2)-c2oncc2CC3)cc1OC : 31.4% (inactive)

The recorded growth for O=C(O)c1ccc(Br)nc1 is 98.4% (inactive)

According to the records, this compound CCN(CC)CCCC(C)Nc1c(C)cnc2cc(Cl)c(C)cc12 (stereo not given) displays growth of 96.2% (inactive)

* * *

- System: RXF 393 renal
- EXPERIMENT_SUMMARY: NCI-60 one-dose screen, 48 h
- CONDITION_DETAILS: 10 µM unless noted
- Procedure: Cells are grown in 96 well plates and exposed to the test compound for 48 hours. Compounds are tested at a single concentration, which is 10^-5 M for most compounds. The reported endpoint is percent growth (GI% or GIPRCNT), where numbers from 0 - 100% represent growth inhibition, and numbers from -100% - 0 represent cell death. For example, a value of 40 represents 60% growth inhibition. A value of 0 means no net growth occurred over the course of the experiment. […]
Compounds without any hit were thinned out: in the full panel of roughly 83,000, 20% have a hit. Active and inactive are the calls of the source. Rule for the calls: active = growth percent below 10; inactive = the rest.
Please reply with one of these outcomes: true (1) = active, false (0) = inactive

{"columns": ["STRUCTURE_STRING", "CAT"],
 "data": [
  ["O=C(Cc1ccccc1[N+](=O)[O-])c1ccc2c(c1)OCO2", "false (0)"],
  ["COc1ccc(CNCCCN2C(=O)c3ccc4c5c(ccc(c35)C2=O)C(=O)N(CCCNCc2ccc(OC)c(OC)c2OC)C4=O)c(OC)c1OC", "true (1)"],
  ["Cc1nc(NC(=O)NC2CCCCC2)sc1C(=O)NN", "false (0)"],
  ["CCCCCCCCCCCCCCCCCCOP(=O)(O)O", "false (0)"]
]}

Input: Can you look up the reported call for CCCC[N+](C)(N)CCCC for me?
Output: false (0)

Input: Please share the test call associated with CCCCCCCCC(=O)Nc1ccc(O)cc1 .
Output: false (0)

* * *

- System: M14 melanoma
- EXPERIMENT_SUMMARY: NCI-60 one-dose screen, 48 h
- CONDITION_DETAILS: 10 µM unless noted
About 83,000 compounds went through this panel and 20% of them were active in at least one assay; those are over-represented in the sample as a whole. The source made the active and inactive calls. Rule for the calls: active = growth percent below 10; inactive = the rest.
Outcomes you can answer with include only these: class 1 (active), class 0 (inactive)

{"columns": ["COMPOUND", "CAT"],
 "data": [
  ["O=C1C=C(OCC=C(C(F)(F)F)C(F)(F)F)c2ccccc2C1=O", "class 0"],
  ["Cc1ncc(C(=O)Nc2ccc(CN3CCN(C)CC3)c(C(F)(F)F)c2)cc1C#Cc1c(N)ncc2ccccc12", "class 1"],
  ["CC(=O)/C(=C/c1ccc(-c2ccccc2)cc1)C(=O)c1ccccc1", "class 0"]
]}

Input: What did this assay record as the result for CN1C(=O)C(=Cc2coc3ccc(Br)cc3c2=O)C(=O)N(C)C1=O ?
Output: class 0

Input: Called result for Nc1nc2c(c3cnccc13)C(c1ccc(Cl)c(Cl)c1)Cc1cnccc1-2 (stereo unspecified)
Output: class 1

Input: Identify the outcome logged in this assay for the compound shown: CCOc1ccccc1/C=N\N=C(N/N=C/c1ccccc1OCC)N/N=C/c1ccccc1OCC
Output: class 0

* * *

- Tested on: ACHN renal
- EXPERIMENT_SUMMARY: NCI-60 one-dose screen, 48 h
- CONDITION_DETAILS: 10 µM unless noted
About 83,000 compounds went through this panel and 20% of them were active in at least one assay; those are over-represented in the sample as a whole. The source made the active and inactive calls. Rule for the calls: active = growth percent below 10; inactive = the rest.
The reply should name one outcome from active, inactive

{"columns": ["MOLECULE", "CAT"],
 "data": [
  ["CC1(C)C(O)NC(Cl)=C(C#N)C1(C#N)C#N (stereo not given)", "inactive"],
  ["COc1cc(-c2nn(-c3ccc(NC(=O)Nc4ccc(Cl)c(C(F)(F)F)c4)cc3)cc2-c2ccncc2)ccc1Cl", "active"],
  ["NNC(=S)N1N=C(c2cc3ccccc3o2)CC1c1c[nH]c2ccccc12 (stereo not given)", "inactive"],
  ["Cc1ccc(S(=O)(=O)NC(CCC(=O)Nc2ccccc2)C(=O)Nc2ccccc2)cc1 (stereo not given)", "active"]
]}

Input: What classification did N#CCc1ncc(-c2ccc(C(F)(F)F)cc2)c(NC2CCCCCC2)n1 end up with in this test?
Output: inactive

Input: Recorded test call requested for COc1ccc(-c2nc(Nc3nc4ccccc4[nH]3)nc(N)c2C#N)cc1
Output: inactive

Input: Which outcome did this test record for the molecule COc1ccc(-c2nnc(SCC(=O)Nc3ccc(C(=O)/C=C/c4cc(OC)c(OC)c(OC)c4)cc3)n2-c2ccccc2)cc1OC ?
Output: active

Input: I would be grateful if you could indicate the recorded call for O=C(/C=C1\C(=O)N(Cc2ccc([N+](=O)[O-])cc2)c2ccccc21)c1ccc(OCCN2CCCC2)cc1 .
Output: inactive

Input: Which outcome did this test record for the molecule CC(C)OCC1CO1 (stereo not given) ?
Output: inactive

Input: Please state the recorded outcome for this molecule: CC(=O)OC1/C=C\CC/C=C\C1 (stereo not given)
Output: inactive

* * *

- Tested on: KM12 colon
- EXPERIMENT_SUMMARY: NCI-60 one-dose screen, 48 h
- CONDITION_DETAILS: 10 µM unless noted
This is part of a sample that, as a whole, favours compounds with a hit. Of some 83,000 tested, about 20% had one in any assay. Calls of active or inactive are those of the source. How the source made its calls: active means growth percent below 10; inactive means the rest.
I would appreciate it if you answered using one of these outcomes: t (active), f (inactive)

Reference set, count: 3
{"columns": ["COMPOUND", "CAT"],
 "data": [
  ["COc1ccc(/C=C(/C(=O)N2CCN(c3ccc(C)cc3)CC2)c2cc(OC)c(OC)c(OC)c2)cc1N", "t"],
  ["CNCCCNCCCCNCCCN1C(=O)c2ccc3c4c(ccc(c24)C1=O)C(=O)N(CCCNCc1ccccc1OC)C3=O", "f"],
  ["CCc1ccc(C(=Nc2ccc(N(C)C(=O)CN3CCN(C)CC3)cc2)c2c(O)[nH]c3ccc(C(=O)OC)cc23)cc1", "t"]
]}

Input: Lab log entry: c1ccc(C(=NNc2nc3ccccc3o2)c2ccccn2)nc1 — outcome as called in the assay?
Output: f

Input: For this compound, state the assay outcome: CCCCCN1CCN(C(CC(=O)c2ccccc2)C(=O)c2ccccc2)CC1 (stereo not given)
Output: f

Input: Dear colleague, could you share the recorded outcome for CC/C(=N\Nc1nc2ccccc2n1C)c1ccccn1 when you have a moment?
Output: f

Input: Given COc1cc2cn3c4ccc(O)cc4[nH]c(=O)c3c2cc1OC , state the outcome it received in this test.
Output: t

Input: Short answer needed: outcome of this test for Nc1nc(-c2cccc(Br)c2)cc(-c2cc3ccccc3oc2=O)n1 ?
Output: f

* * *

- Tested on: RPMI-8226 leukemia
- EXPERIMENT_SUMMARY: NCI-60 one-dose screen, 48 h (100 = growth as untreated, 0 = no growth, -100 = all killed)
- CONDITION_DETAILS: 10 µM unless noted
About 83,000 compounds went through this panel and 20% of them were active in at least one assay; those are over-represented in the sample as a whole.
RESULT_TYPE: growth (%)
State the answer as a number, implicitly in %.

{"columns": ["STRUCTURE_STRING", "growth [%]"],
 "data": [
  ["C/C=C/C/C=C/[C@H](C)C[C@H](O)[C@@H]1C[C@@H]2O[C@H]2/C=C/[C@@H]2OC(C)(C)O[C@H]2/C=C/C[C@H](C)CC(=O)O1", -5.18],
  ["COc1ccc(Oc2[nH]n(C3=Nc4ccccc4Sc4ccccc43)c(=O)c2C#N)cc1", 91.2],
  ["O=c1[nH]c(=S)[nH]c(O)c1/C=C1\\C=Nc2ccccc21", 72.2],
  ["Cc1ccc(C(C)C)c(OCc2ccc(C(=O)N/N=C/c3cccc(O)c3O)cc2)c1", 28.8],
  ["COc1cc(OC)c(NC(=O)n2ncc3cc(Nc4ncnc5ccccc45)ccc32)cc1Cl", 101],
  ["COc1cccc(-c2cc(-c3cc4ccccc4oc3=O)nc(N)n2)c1", 108],
  ["c1cc[c]([Bi]([c]2ccccc2)[c]2ccccc2)cc1", 91],
  ["O=C1N/C(=N\\c2nnc(-c3ccc(O)cc3)s2)S/C1=C\\c1ccccc1O", 101]
]}

// sample CC(C)(C)c1ccc(OCCOC(=O)CBr)cc1 , its growth was 88.2

Input COc1cc(-c2nn(-c3ccc(NC(=O)c4ccc(Cl)c(C(F)(F)F)c4)cc3)cc2-c2ccncc2)ccc1Cl . Output growth: -23
